# Tested on: Trichophyton rubrum I/95 (patient isolates)
# Experiment: Anti-mycotic activity assay from nail (infected nail model, cow horn membranes)
# Particulars: with irradiation at 519 nm; 5 mg/ml or 10 mg/ml in diluted nitrocellulose-based nail lacquer, 15 µL/membrane; evaluated after 7 days
# Protocol: For testing the effect of the pharmaceutical compounds in a nail, compounds were applied as a solution of 5 mg/ml or 10 mg/ml in nitrocellulose-based cosmetic nail lacquer, diluted 1: 1 with ethyl acetate, onto cow horn membranes representing nail. Trichophyton rubrum I/95 (patient isolates) was cultivated for 1-3 weeks on GPY (0.1 % glucose, 0.05 % peptone, 0.01 yeast extract, 1.5 % agar) at 28°C. […] After 7 days of incubation at 29 °C the dishes were evaluated. […]
Readout Kind: growth of T. rubrum in cow horn membrane

Compound: NCC(=O)CCC(=O)O [5-amino laevulinic acid]
Readout Kind: growth of T. rubrum in cow horn membrane
Result: did not suppress growth
//
Compound: CN(C)c1ccc2nc3ccc(=[N+](C)C)cc-3sc2c1 [methylene blue, reference compound]
Readout Kind: growth of T. rubrum in cow horn membrane
Result: did not suppress growth
